Answer each item with its documented T/C.
# System: CD2F1 mice, L1210 leukemia ip, survival T/C
# Method Description: NCI In Vivo Anticancer Drug Screen. Data for tumor model L1210 Leukemia (intraperitoneal) in CD2F1 (CDF1) mice
# Settings: endpoint: mean survival time; dose: 400.0 mg/kg/injection; schedule: Q04DX002 (ip); vehicle: saline with Tween-80; higher = longer survival
Toxic doses and inconclusive results are not listed.

What does the data say about its T/C? Entry: CSc1nc(C)cc(=O)[nH]1
90 % of control

What do you have for COCNC(=S)N/N=C/c1ccc(O)cn1 ?
102 % of control

What do you have for O=C(CCN1C(=O)c2ccccc2C1=O)c1ccccc1 ?
92 % of control

What do you have for C(=NCc1ccccc1)c1ccc2c(c1)OCO2 ?
100 % of control

What do you have for O=C(OCCOC(=O)N1CCOCC1)N1CCOCC1 ?
101 % of control

What do you have for O=C(O)CCOc1cc(F)c(F)cc1F ?
97 % of control

What do you have for CCCCCCCCCSCCS ?
100 % of control

What do you have for O=C1OC2CCC(Br)CC2C=C1C1CCC([N+](=O)[O-])CC1 (stereo not drawn) ?
89 % of control

What do you have for Oc1ccccc1C=NC1CCCCC1N=Cc1ccccc1O.[Ni] (stereo not drawn) ?
93 % of control

What do you have for CC(C)NC(=O)Nc1ccccc1Cl ?
104 % of control

What do you have for O=c1[nH]c(=O)n(C2OC(CO)C(O)C2O)cc1Br (stereo not drawn) ?
101 % of control

What do you have for CC(C)(C)C1CCC(S(=O)c2ccccc2)CC1 (stereo not drawn) ?
93 % of control

What do you have for O=[N+]([O-])c1ccc2c(c1)sc1cc([N+](=O)[O-])c(Br)cc12 ?
112 % of control
